study system: Jak2 (UniProt O60674)
Sequence (O60674 whole entry, looked up): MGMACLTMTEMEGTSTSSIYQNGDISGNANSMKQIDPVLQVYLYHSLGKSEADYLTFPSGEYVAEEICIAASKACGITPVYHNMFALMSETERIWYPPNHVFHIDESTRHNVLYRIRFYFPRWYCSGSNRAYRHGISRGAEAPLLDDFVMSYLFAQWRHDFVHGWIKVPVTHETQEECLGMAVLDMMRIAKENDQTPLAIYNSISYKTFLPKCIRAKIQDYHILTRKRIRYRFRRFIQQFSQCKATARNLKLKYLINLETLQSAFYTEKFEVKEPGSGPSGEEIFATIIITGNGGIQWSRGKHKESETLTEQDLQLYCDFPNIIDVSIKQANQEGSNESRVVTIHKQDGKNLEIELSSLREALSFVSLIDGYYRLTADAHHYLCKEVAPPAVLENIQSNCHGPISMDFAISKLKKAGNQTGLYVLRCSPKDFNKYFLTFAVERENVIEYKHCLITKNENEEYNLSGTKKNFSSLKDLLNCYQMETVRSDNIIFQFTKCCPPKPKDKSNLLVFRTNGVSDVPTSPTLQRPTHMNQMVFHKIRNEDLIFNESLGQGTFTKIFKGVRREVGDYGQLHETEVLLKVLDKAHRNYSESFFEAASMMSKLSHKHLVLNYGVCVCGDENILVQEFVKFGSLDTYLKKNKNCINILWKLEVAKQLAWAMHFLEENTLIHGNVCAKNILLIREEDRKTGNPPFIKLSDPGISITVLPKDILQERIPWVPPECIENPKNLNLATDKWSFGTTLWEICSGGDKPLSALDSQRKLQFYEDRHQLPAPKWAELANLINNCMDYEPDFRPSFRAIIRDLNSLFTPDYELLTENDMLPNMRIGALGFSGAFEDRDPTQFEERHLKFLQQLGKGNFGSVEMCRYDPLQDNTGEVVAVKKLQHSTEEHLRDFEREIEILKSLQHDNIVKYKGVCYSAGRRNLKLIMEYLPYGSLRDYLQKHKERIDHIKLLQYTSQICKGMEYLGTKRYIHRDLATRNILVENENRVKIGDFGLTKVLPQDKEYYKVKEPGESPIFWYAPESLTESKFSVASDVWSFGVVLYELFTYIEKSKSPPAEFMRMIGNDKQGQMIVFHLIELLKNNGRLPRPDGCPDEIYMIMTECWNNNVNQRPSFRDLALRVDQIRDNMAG
assay summary: phosphorylation enrichment, bacterial display (enrichment ratio); higher = better substrate or ligand; peptides without Tyr show the background;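 also: 11-residue human phosphosite peptides and single-mutation variants displayed on the E. coli surface, counted by deep sequencing, each peptide's frequency after selection divided by its frequency in the unselected input library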;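 also: frequency after pTyr selection over input frequency; kinase dosed for 20-30% of maximal phosphorylation in three min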
phosphorylation enrichment values by entry
reported metric: phosphorylation enrichment

sequence data | reported metric | result
SRASYYRKGGC [ALK_Y1283_Y1278S] | phosphorylation enrichment | 0.641
ENAGYYFRVSA | phosphorylation enrichment | 1.21
GESKDYALHVG [SVIL_Y185] | phosphorylation enrichment | 0.461
LIGRGYDDPEV [HSPA9_Y128_R127G] | phosphorylation enrichment | 0.868
HEPKGYNANFC [TGFB2_Y341] | phosphorylation enrichment | 0.737
KLPYLYDDPFS [GPX2_Y127_P126L] | phosphorylation enrichment | 0.997
QKFMAYLSQGG [HLCS_Y236] | phosphorylation enrichment | 0.945
ILKPDYQPLAI [HYDIN_Y1072] | phosphorylation enrichment | 0.556

* * *

study system: Fyn (UniProt P06241)
Sequence (P06241 whole entry, looked up): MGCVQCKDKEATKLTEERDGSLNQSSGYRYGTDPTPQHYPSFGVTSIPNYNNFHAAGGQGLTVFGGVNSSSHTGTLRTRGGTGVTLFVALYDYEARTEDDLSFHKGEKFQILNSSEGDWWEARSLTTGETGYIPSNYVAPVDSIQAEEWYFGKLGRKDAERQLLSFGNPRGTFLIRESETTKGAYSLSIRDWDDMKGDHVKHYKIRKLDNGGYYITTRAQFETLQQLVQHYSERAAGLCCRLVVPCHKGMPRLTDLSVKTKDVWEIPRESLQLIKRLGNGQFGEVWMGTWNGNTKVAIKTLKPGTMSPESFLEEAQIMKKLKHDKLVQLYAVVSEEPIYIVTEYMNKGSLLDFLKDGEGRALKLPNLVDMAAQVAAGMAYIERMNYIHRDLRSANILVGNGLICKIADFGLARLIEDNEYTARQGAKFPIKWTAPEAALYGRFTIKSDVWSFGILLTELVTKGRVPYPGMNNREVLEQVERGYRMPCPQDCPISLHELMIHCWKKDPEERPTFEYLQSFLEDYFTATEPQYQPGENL
assay summary: phosphorylation enrichment, bacterial display (enrichment ratio); higher = better substrate or ligand; peptides without Tyr show the background

sequence data | phosphorylation enrichment
KNEVLYDGENH [ARFGEF1_Y314] | 0.422
SHGQDYLAGNK [GSTA2_Y147_V149A] | 0.458
RHFSSYSQMEN [PKP1_Y120_R116H] | 0.551
ASTDFYKRGDF [PDHA1_Y243_YF] | 0.325
GIFSGYDDAWD [POLR1C_Y36_N32I_YF] | 0.551
NTTIHYNFMCN [TP53_Y234_C229N_YF] | 0.495
SEKIVYGHVDD [ACO2_Y71_L74V] | 0.515
LKALHYMAQTS [SACS_Y3367_V3369A] | 0.705
FCRHNYGVVES [HLA-DRB1_Y112_YF] | 0.503
ENRKFYMDLKE [PURA_Y156_YF] | 0.408
LADKPYTFEDY [FXN_Y118] | 3.63
HLDRSYSFSFS [PEAR1_Y890_R885H_YF] | 0.561
EACPSYSHVVL [CHST6_Y168_R166P] | 0.411
EWQQIYTYDSG [JUP_Y20_T19I] | 8.85
SKNSKYNAEST [PSEN1_Y315] | 0.363
EAAFVYVISSA [WNT4_Y113_A114V] | 0.606
FTRNFYVQAVL [CYBA_Y88_R90Q_YF] | 0.435
KKCTTYIDCDL [ASPA_Y64_R63T] | 0.42
KRAIGHYSATS [FAM120A_Y327_Y327H] | 0.346
PINLYYLMDLS [ITGB2_Y131_D128N] | 4.6
LNCIFYKDQTG [RS1_Y166_W163C_YF] | 0.552
PVQAAYQQVVA [HBB_Y131_K133Q] | 0.6
SVEELYAIPPD [PEAK1_Y797] | 2.88
RCKNHYAAFSV [C1QTNF1_Y145_S143N] | 0.415
LADKPYTFEDF [FXN_Y118_YF] | 7.15
VMTLDYSKTVV [SETD2_Y770_V768L] | 0.37
ENAGYYFRVSA | 0.435
SRVTQYERNFE [SNX1_Y463_D466N] | 0.45
LKVDVYRRSHK [FUT3_Y222_G223R] | 0.44
